- Tested on: HCT-116 human colorectal cancer cells (colon carcinoma)
- measurementNotes: MTT cytotoxicity assay, HCT-116
- setupConditions: Homo sapiens, HCT-116, 48 h, read-out: IC50 (95% CI) HCT-116 48 h
pIC50: −log10 of the molar value.
measurementKind: pIC50

[[record]]
compoundstructure = "COc1cc(C(=O)N/N=C/c2cc3ccccc3s2)cc(OC)c1OC"
number = 5.57

[[record]]
compoundstructure = "COc1ccc(/C=C\\c2cc(OC)c(OC)c(OC)c2)cc1O"
number = 6.70


----------
- measurementNotes: PAMPA-BBB permeability
- Format: in vitro ADME
- setupConditions: PAMPA, PAMPA-BBB, mean; read-out: Pe (Experimental Mean)
measurementKind: Papp (×10⁻⁶ cm/s)

[[record]]
molecule = "CCn1cc(C(=O)O)c(=O)c2cc(F)c(N3CCNCC3)nc21 [Enoxacin]"
number = 0.3

[[record]]
molecule = "COc1cc(C(=O)N/N=C/c2cc3ccccc3s2)cc(OC)c1OC [LASSBio-1920]"
number = 11.5

